target: muscarinic M3 receptor (Homo sapiens, UniProt P20309); construct: expressed in transfected cells; host or cells: CHO cells; experiment: Binding assay M3 (h), [3H]4-DAMP, CHO cells; conditions: read-out: M3 [%]
Sequence (P20309 whole entry): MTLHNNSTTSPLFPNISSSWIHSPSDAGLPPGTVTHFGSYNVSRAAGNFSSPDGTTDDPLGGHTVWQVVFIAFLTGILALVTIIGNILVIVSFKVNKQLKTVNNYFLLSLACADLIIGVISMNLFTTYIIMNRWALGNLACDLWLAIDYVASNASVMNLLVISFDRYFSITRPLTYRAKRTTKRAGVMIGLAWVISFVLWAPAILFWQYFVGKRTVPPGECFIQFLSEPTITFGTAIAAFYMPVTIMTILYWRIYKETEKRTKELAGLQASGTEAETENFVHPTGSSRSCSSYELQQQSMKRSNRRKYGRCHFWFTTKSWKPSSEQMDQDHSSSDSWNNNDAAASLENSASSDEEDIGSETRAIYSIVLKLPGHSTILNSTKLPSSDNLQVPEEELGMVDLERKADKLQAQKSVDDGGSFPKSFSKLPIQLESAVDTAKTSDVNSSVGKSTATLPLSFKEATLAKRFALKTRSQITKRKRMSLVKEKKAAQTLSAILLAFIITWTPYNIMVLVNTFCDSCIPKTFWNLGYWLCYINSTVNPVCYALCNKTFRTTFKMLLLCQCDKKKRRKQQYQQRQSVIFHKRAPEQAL

| given.smiles | inhibition at 1 µM (%) |
| --- | --- |
| O=S(=O)(NCCCCN1CCN(c2noc3ccccc23)CC1)c1c[nH]c2ncccc12 | 22 |
| O=S(=O)(NCCCN1CCN(c2nsc3ccccc23)CC1)c1cc2ccccc2s1 | 19 |
| Cc1cccc(S(=O)(=O)NCCCCN2CCN(c3nsc4ccccc34)CC2)c1 | 13 |
| N#Cc1cccc(S(=O)(=O)NCCCN2CCN(c3nsc4ccccc34)CC2)c1 | 17 |
| O=S(=O)(NCCCCN1CCN(c2cccc3[nH]ccc23)CC1)c1cc2ccc(Cl)cc2s1 | 15 |
| O=c1[nH]c2ccc(S(=O)(=O)NCCCCN3CCN(c4noc5ccccc45)CC3)cc2o1 | -1 |
| O=S(=O)(NCCCN1CCN(c2nsc3ccccc23)CC1)c1cccs1 | 15 |
| O=S(=O)(NCCCCN1CCC(c2noc3cc(F)ccc23)CC1)c1cc2ccccc2o1 | 28 |

====

biological target: serotoninergic 5-HT2A receptor (Homo sapiens); assay: Cellular functional assay, serotoninergic 5-HT2A receptor (agonism/antagonism); assay type: cell-based; details: read-out: 5-HT2A -antag [%]
Sequence (P28223 whole entry): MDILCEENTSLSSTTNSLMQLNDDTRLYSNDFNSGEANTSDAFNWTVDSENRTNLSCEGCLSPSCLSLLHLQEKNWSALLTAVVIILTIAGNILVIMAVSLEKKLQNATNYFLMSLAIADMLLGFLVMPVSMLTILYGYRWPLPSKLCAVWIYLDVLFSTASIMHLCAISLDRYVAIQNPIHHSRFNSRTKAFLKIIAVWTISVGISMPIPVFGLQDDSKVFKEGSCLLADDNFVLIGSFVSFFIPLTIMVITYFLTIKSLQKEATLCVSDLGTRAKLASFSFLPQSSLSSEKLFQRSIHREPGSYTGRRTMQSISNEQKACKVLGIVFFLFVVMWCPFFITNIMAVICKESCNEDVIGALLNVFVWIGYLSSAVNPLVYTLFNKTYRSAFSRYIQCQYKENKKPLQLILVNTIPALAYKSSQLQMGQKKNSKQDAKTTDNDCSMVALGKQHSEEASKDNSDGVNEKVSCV

| given.smiles | inhibition at 1 µM, % |
| --- | --- |
| O=S(=O)(NCCCCN1CCN(c2noc3ccccc23)CC1)c1ccc(-c2ccccc2)cc1 | 99 |
| Cc1c(S(=O)(=O)NCCCN2CCC(c3noc4cc(F)ccc34)CC2)sc2ccc(F)cc12 | 99 |
| Cc1c(S(=O)(=O)NCCCCN2CCC(c3noc4cc(F)ccc34)CC2)sc2ccc(F)cc12 | 100 |
| Cc1cccc(S(=O)(=O)NCCCN2CCN(c3nsc4ccccc34)CC2)c1 | 100 |
| O=S(=O)(NCCCCN1CCC(c2noc3cc(F)ccc23)CC1)c1ccc2ccccc2c1 | 102 |
| O=S(=O)(NCCCCN1CCC(c2noc3cc(F)ccc23)CC1)c1ccc(Br)cc1 | 99 |
| O=S(=O)(NCCCCN1CCN(c2noc3ccccc23)CC1)c1ccc2cc(Cl)ccc2c1 | 97 |
| O=S(=O)(NCCCCN1CCN(c2noc3ccccc23)CC1)c1cc2ccc(Cl)cc2s1 | 97 |

====

# inhibition at 1 µM listing for each entry below
biological target: muscarinic M3 receptor (Homo sapiens); construct: expressed in transfected cells; host or cells: CHO cells; assay: Binding assay M3 (h), [3H]4-DAMP, CHO cells; conditions: read-out: M3 [%]
measured.quantity: inhibition at 1 µM (%)

| given.smiles | reading.unit | value.reported |
| --- | --- | --- |
| Cc1c(S(=O)(=O)NCCCCN2CCC(c3noc4cc(F)ccc34)CC2)sc2ccc(Cl)cc12 | % | 24 |
| O=S(=O)(NCCCCN1CCN(c2cccc3[nH]ccc23)CC1)c1ccccc1 | % | 46 |
| Cc1cccc(S(=O)(=O)NCCN2CCN(c3nsc4ccccc34)CC2)c1 | % | -6 |
| O=c1[nH]c2ccc(S(=O)(=O)NCCN3CCN(c4nsc5ccccc45)CC3)cc2o1 | % | -9 |
| O=S(=O)(NCCCCN1CCN(c2cccc3[nH]ccc23)CC1)c1ccc2ccccc2c1 | % | 17 |
| O=S(=O)(NCCN1CCC(c2noc3cc(F)ccc23)CC1)c1ccc2ccccc2c1 | % | 10 |
| O=S(=O)(NCCCN1CCN(c2nsc3ccccc23)CC1)c1ccc(Cl)s1 | % | 18 |
| O=S(=O)(NCCCN1CCN(c2nsc3ccccc23)CC1)c1cccc2scnc12 | % | 13 |
| O=S(=O)(NCCCN1CCN(c2nsc3ccccc23)CC1)c1ccc(F)cc1 | % | 13 |
| O=S(=O)(NCCCN1CCC(c2noc3cc(F)ccc23)CC1)c1ccc2cc(Cl)ccc2c1 | % | 16 |
| O=S(=O)(NCCCN1CCN(c2nsc3ccccc23)CC1)c1ccc(F)c(F)c1 | % | 9 |
| Cc1c(S(=O)(=O)NCCCCN2CCC(c3noc4cc(F)ccc34)CC2)sc2ccc(F)cc12 | % | 14 |
